system: T1, human extracellular ErbB1/Fc chimera (human, UniProt P00533 25-645)
T1 construct: ErbB1 (EGFR), human, extracellular part; also called EGFR; EGFR-Fc; source: bought: R&D Systems (carrier free)
assayInfo: SPR; BIAcore 2000; 2000 RU of ErbB/Fc chimera immobilized covalently on a CM4 chip; S100A4 or peptides as analyte; apparent affinities calculated from binding kinetics
measurementSetup: both partners purified
No end group written: not given here.

| binder | Kd [nM] |
| --- | --- |
| KELLTRELPSFLGKRT (also: tetramer: four monomers coupled to a lysine backbone, motif of S100A4 with high homology within the S100 family; Dendrimeric tetramer: four copies of the peptide on a lysine backbone; source: synthetic peptide (Schafer-N, Denmark)) [H3 peptide (S100A4-derived), tetramer on a lysine backbone] | 107 |
| NEFFEGFPDKQPRKK (also: tetramer: four monomers coupled to a lysine backbone, low-homology ('unique') motif in the C-terminal of S100A4; Dendrimeric tetramer: four copies of the peptide on a lysine backbone; source: synthetic peptide (Schafer-N, Denmark)) [H6 peptide (S100A4-derived), tetramer on a lysine backbone] | 802 |
